Target: T1, human Tissue Factor on human TF-positive cells (human, UniProt P13726 33-295)
T1 construct: also called hTF; CD142
Assay: flow cytometry, antibody titration on HCT-116 cells (endogenous human TF), 4-parameter fit of MFI
quantity_measured: EC50 (pM)
Give bare numbers, in pM.

Solved entries (count: 2):
1. 25A5 (antibody, human IgG1, V domains shown, Human IgG1; also called antibody designated 25A5) VH: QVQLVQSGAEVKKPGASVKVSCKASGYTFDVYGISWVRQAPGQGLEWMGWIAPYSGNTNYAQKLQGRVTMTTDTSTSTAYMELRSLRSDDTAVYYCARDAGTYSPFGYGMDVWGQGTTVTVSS VL: DIQMTQSPSTLSASVGDRVTITCRASESISNWLAWYQQKPGKAPKLLIYKAYSLEYGVPSRFSGSGSGTEFTLTISSLQPDDFATYYCQQFQKLPPFTFGGGTKVEIK    88
2. 25G1 (antibody, human IgG1, V domains shown, Human IgG1; also called antibody designated 25G1) VH: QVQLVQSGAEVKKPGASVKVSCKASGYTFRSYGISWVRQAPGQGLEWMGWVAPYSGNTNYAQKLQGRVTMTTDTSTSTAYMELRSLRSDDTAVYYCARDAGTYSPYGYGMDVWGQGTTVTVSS VL: DIQMTQSPSTLSASVGDRVTITCRASHSIDSWLAWYQQKPGKAPKLLIYKASYLESGVPSRFSGSGSGTEFTLTISSLQPDDFATYYCQLFQSLPPFTFGGGTKVEIK    85

Would you kindly look at the next entry?
[in] # get_value(readout='EC50', item= 25A3 (antibody, human IgG1, V domains shown, Human IgG1; also called antibody designated 25A3) VH: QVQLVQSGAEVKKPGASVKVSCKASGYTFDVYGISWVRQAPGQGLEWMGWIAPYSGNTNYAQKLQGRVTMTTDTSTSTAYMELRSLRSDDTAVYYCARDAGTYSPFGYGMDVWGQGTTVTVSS VL: DIQMTQSPSTLSASVGDRVTITCQASQSINNWLAWYQQKPGKAPKLLIYKAYNLESGVPSRFSGSGSGTEFTLTISSLQPDDFATYYCQLFQSLPPFTFGGGTKVEIK )
[out] 77
